Target: Tumor necrosis factor receptor superfamily member 10B (Homo sapiens)
Assay: caspase-8 TRAIL sensitization, hit retest, confirmation, cell-based, NB7+caspase-8, with/without TRAIL, luminescence panel (AID 651596)
Details: NB7 neuroblastoma + caspase-8, TRAIL sensitization, luminescence viability, with TRAIL, mean of runs, at 10 µM, stronger effect = higher value
Lab note - cut at 60% for activity: Met if strictly below, Not met if not.

compound=COc1ccc(C(=O)Nc2ccccc2C(=O)N/N=C/c2cccc3ccccc23)cc1 classification="Not met"
compound=COc1ccc(NC(=O)c2cccc(N3C(=O)c4ccc(C(=O)Nc5ccc(OC)c(O)c5)cc4C3=O)c2)cc1O classification="Not met"
compound=NC(=O)c1ccsc1NC(=O)c1coc2ccccc2c1=O classification=Met
compound=Nc1nc(N)c2c(ccc3nccc32)[nH]1 classification="Not met"
compound=CCOC(=O)CSc1nc2cc(C)ccc2cc1C#N classification=Met
compound=CCCCCCCn1c2c(c(=N)c3ccccc31)CCC2 classification="Not met"
compound=Cc1cc(C)cc(NS(=O)(=O)c2ccc3c(c2)c(=O)n(C)c(=O)n3C)c1 classification="Not met"
compound=Cc1cccc(-n2ncc3c(N4CCC(C)CC4)ncnc32)c1 classification=Met
compound=COc1ccc(C(=O)N/N=C/c2cccnc2)cc1 classification=Met
compound=C/C(=N\Nc1nncc2ccccc12)c1cccc(OC(F)F)c1 classification="Not met"
compound=Clc1ccccc1CSc1nc2ccncc2[nH]1 classification="Not met"
compound=O=C(c1cnc(Cl)c(Cl)c1)N1CCN(S(=O)(=O)c2ccc3ccccc3c2)CC1 classification=Met
compound=Cc1cc(C(=O)COC(=O)c2cccn2C)c(C)n1Cc1ccco1 classification=Met
compound=CC(=O)Nc1cc(-c2cccc(C(=O)NCCN(C)C)c2)cn2c(-c3cccc(C(F)(F)F)c3)cnc12 classification="Not met"
compound=CCOc1ccc(Nc2nc(N)nc(CCl)n2)cc1 classification="Not met"
compound=Cc1ccccc1C(=O)O/N=C(\N)c1cccc([N+](=O)[O-])c1 classification="Not met"
compound=COc1cccc(-c2noc(-c3ccc4c(c3)OCO4)n2)c1 classification="Not met"
compound="COc1ccc(-c2cc(-c3ccccc3)c(C#N)c(S(C)=O)n2)cc1 (centres undefined)" classification="Not met"
compound=CCOc1ccc(NC(=O)Nc2cccnc2)cc1 classification=Met
compound=C#Cc1ccccc1OCCCN1CCC(C(O)(c2ccccc2)c2ccccc2)CC1 classification="Not met"
compound=CCCCCCCN(C(=O)CCl)c1cccc(C)c1 classification="Not met"
compound=CC(=O)Nc1cccc(-c2csc(Nc3ccc(C)cn3)n2)c1 classification=Met
compound="CCCCCCCCCCCCCCC(O)C[N+](C)(CCO)CCO (centres undefined)" classification="Not met"
compound=COc1ccc2[nH]c3c(NCCC4=CCCCC4)ncnc3c2c1 classification=Met
compound=COc1ccc(C(=O)NCc2cn3cccc(C)c3n2)cc1OC classification=Met
compound="Cn1c(=S)[nH]c2sc3c(c2c1=O)CCC(C(C)(C)C)C3 (centres undefined)" classification="Not met"
compound=Nc1c(N(CCC2=CCCCC2)C(=O)COc2ccc(F)cc2)c(=O)[nH]c(=O)n1Cc1ccccc1 classification=Met
compound=O=C(Nc1nc2cc3c(cc2s1)OCCO3)c1ccc([N+](=O)[O-])o1 classification="Not met"
compound=Cc1cc(C)c2sc(N(CCCN(C)C)C(=O)c3ccc(S(=O)(=O)N4CCc5ccccc5C4)cc3)nc2c1 classification="Not met"
compound=O=C(Cn1ncc(Cl)c(Cl)c1=O)Nc1ccc2c(c1)OCO2 classification="Not met"

----------
Target: Tumor necrosis factor receptor superfamily member 10B (Homo sapiens) (UniProt O14763)
Sequence (O14763 whole entry, looked up): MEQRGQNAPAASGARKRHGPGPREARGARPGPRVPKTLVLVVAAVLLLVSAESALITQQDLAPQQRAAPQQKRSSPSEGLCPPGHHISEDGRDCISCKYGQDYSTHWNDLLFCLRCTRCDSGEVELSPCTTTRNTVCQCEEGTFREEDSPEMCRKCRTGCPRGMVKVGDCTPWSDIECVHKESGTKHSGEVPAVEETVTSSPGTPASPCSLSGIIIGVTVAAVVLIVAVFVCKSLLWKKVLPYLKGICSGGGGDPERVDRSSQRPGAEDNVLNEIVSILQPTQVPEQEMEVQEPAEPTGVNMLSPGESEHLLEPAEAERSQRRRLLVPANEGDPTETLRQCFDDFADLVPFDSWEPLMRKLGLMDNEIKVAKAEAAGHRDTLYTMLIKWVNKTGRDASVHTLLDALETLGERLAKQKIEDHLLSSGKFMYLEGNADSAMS
Assay: caspase-8 TRAIL sensitization, hit retest, confirmation, cell-based, NB7+caspase-8, with/without TRAIL, luminescence panel (AID 651596)
Conditions: NB7 neuroblastoma + caspase-8, TRAIL sensitization, luminescence viability, with TRAIL, mean of runs, at 10 µM, stronger effect = higher value
# activity per record follows
readout_name: activity (%)

compound=Cc1onc(-c2ccccc2Cl)c1C(=O)O/N=C(\N)c1ccccc1 readout_name=activity experimental_value=99
compound=COc1ccc(-c2ccc(NC(=O)c3ccco3)cc2)nn1 readout_name=activity experimental_value=91
compound=COc1ccc(C[C@H](N)C(=O)N[C@H]2[C@@H](O)[C@H](n3cnc4c(N(C)C)ncnc43)O[C@@H]2CO)cc1 readout_name=activity experimental_value=98.4
compound=COC(=O)Cc1ccc(NC(=O)c2ccc(C(C)(C)C)cc2)cc1 readout_name=activity experimental_value=76.2
compound=COCCCNc1ccn2nc(-c3ccccc3)cc2n1 readout_name=activity experimental_value=50.1
compound=Cc1ccc2oc(/N=C(\N)NC(=O)C3CC3)nc2c1 readout_name=activity experimental_value=56.4
compound=Cc1ccc2oc(-c3ccccc3)c(C(=O)O)c(=O)c2c1 readout_name=activity experimental_value=29.9
compound=Cc1ccc(C(=O)Nc2ccc3ncccc3c2)cc1 readout_name=activity experimental_value=93.4
compound=Nc1nc(N)c2cc(Sc3ccc(Cl)cc3)ccc2n1 readout_name=activity experimental_value=70.7
compound="C#Cc1ccc(NC(=O)C2(C)CCN2C(=O)Cc2ccc(-c3ccccc3)cc2)cc1 (stereo unspecified)" readout_name=activity experimental_value=94.4
compound=Cc1cccc(-n2ncc3c(N4CCOCC4)ncnc32)c1 readout_name=activity experimental_value=85.7
compound=O=C(NCc1ccccc1)c1c(Cl)nc(Cl)c(Cl)c1Cl readout_name=activity experimental_value=99.8
compound=Cc1nc(N)nc(N)c1CCCc1ccc(Cl)c(Cl)c1 readout_name=activity experimental_value=69.6
compound=CCCc1cc(C(=O)N/N=C/c2ccc(CC)s2)c2ccccc2n1 readout_name=activity experimental_value=68.8
compound=C=CCOc1ccc(/C=C/C(C)=N\O)cc1 readout_name=activity experimental_value=57.2
compound=Oc1cccc2ccc(Nc3ccccn3)nc12 readout_name=activity experimental_value=88.8

----------
Test system: Rat fibroblasts (CREF)
Assay: Peg3 promoter luciferase inhibitors, potency, dose response, cell-based, HeLa, CREF/GAPDH counter-screen panel (AID 624167)
Details: CREF/GAPDH counter-screens; run 1, dose range 1, at 100 µM (top of the series)
readout_name: inhibition (%)

compound=Cc1ccc(C(=O)CN2C(=O)c3ccccc3S2(=O)=O)cc1 unit_text=% experimental_value=87.2
compound=O=c1c2ccccc2sc2ccc(C#CC3(O)CCCCC3)cc12 unit_text=% experimental_value=100
compound=CCOc1ccc2c(ccc(/C=C/c3cc(C)c4cccnc4c3O)[n+]2C)c1 unit_text=% experimental_value=98.8
compound=COc1ccc(/C=N/Nc2nncc3ccccc23)cc1 unit_text=% experimental_value=97.8
compound=CN(C)c1ccc(/C=C/c2ccc3c4ccccc4ccc3[n+]2-c2ccccc2)cc1 unit_text=% experimental_value=101
compound=Cc1nc(-c2ccc(NC(=O)c3ccco3)cc2)cs1 unit_text=% experimental_value=93.3
compound="CCCCC(=O)NC(c1ccccc1OC)c1ccc2cccnc2c1O (centres undefined)" unit_text=% experimental_value=-8.76
compound=O=C(Nc1ccc([N+](=O)[O-])cc1)C(=O)Nc1cccc(C(=O)O)c1 unit_text=% experimental_value=97.5
compound=Cc1nn(-c2nc3ccccc3[nH]2)c(=O)c2ccccc12 unit_text=% experimental_value=100
compound=O=C(CNC(=O)C(c1ccccc1)c1ccccc1)N/N=C/c1ccc(O)cc1O unit_text=% experimental_value=28.9
compound=O=C(O)c1ccc(N/N=C/c2ccc3nccnc3c2)cc1 unit_text=% experimental_value=58.2
compound=COc1cc(SC)ccc1C(=O)Nc1nc(C)cs1 unit_text=% experimental_value=98.6
compound=Cc1ccc(-c2nc(-c3ccccn3)no2)cc1 unit_text=% experimental_value=100
compound=O=C(NC(=O)c1ccccc1)Nc1ccccn1 unit_text=% experimental_value=95.3
compound="CCCCCCCNC(=O)C1(CC2CC(c3cccc(Br)c3)=NO2)CCNCC1 (centres undefined)" unit_text=% experimental_value=99.7
compound="Cc1cc(C(=O)CN2C(=O)c3ccccc3S2(=O)=O)c(C)n1CC1CCCO1 (centres undefined)" unit_text=% experimental_value=99.2
compound=CCCCCN1C=CC(=C2C(=O)c3ccccc3C2=O)C=C1 unit_text=% experimental_value=98.2
compound=COc1ccc(/C=C/c2nc3ccccc3n2C)cc1 unit_text=% experimental_value=100
compound=Cc1ccc(NC(=S)NC(=O)c2ccc(F)cc2)cc1S(=O)(=O)Nc1ccccc1Cl unit_text=% experimental_value=-12

----------
Biological target: Carboxy-terminal domain RNA polymerase II polypeptide A small phosphatase 1 (Homo sapiens) (UniProt Q9GZU7)
Sequence (Q9GZU7 76-261 limits assumed): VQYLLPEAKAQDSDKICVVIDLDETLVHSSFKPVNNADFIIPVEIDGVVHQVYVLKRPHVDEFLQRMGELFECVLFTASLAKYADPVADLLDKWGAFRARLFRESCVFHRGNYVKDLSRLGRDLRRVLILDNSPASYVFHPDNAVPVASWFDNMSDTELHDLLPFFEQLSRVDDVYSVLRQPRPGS
Test: Scp-1 binding by thermal shift, confirmation, orthogonal assay for Scp-1 inhibitor project, biophysical, differential scanning fluorimetry (AID 540329);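 further: 0% = Tm of DMSO wells and 100% = Tm with sodium orthovanadate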
Conditions: Recombinant SCP1, Sypro Orange thermal shift Tm; at 40 µM
The list shows a part of the results. The source made the active and inactive calls.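 Rule for the calls: active = substances whose mean melting-temperature shift, as a percentage of the reference inhibitor's shift, reaches about 5.3% (limit read from the data); inactive = the rest.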
Possible outcomes: Y = active, N = inactive

molecule=O=C(CCS(=O)(=O)c1ccc(Br)cc1)NCCc1ccc(Cl)cc1 classification=N
molecule=CCCCCN1CC(O)=C(c2nc(-c3ccc(Cl)cc3)cs2)C1=N classification=N
molecule=N/C(=N\OC(=O)N1c2ccccc2Sc2ccccc21)c1ccc(Br)cc1 classification=N
molecule=C=C1c2cccc(OC)c2O[C@H](C(=O)OCC)[C@@H]1CCCCCC classification=N
molecule=Cc1ccc(/C=C/C(=O)Nc2ccc([N+](=O)[O-])c(NC(=O)/C=C/c3ccc(C)o3)c2)o1 classification=Y
molecule=Cc1ccc(CCCOC(=O)C[N+]2(C)CCCC2)cc1 classification=N
molecule="C=Cc1ccc(C(=O)N2CCCC(CCC(=O)N3CCN(c4ccccn4)CC3)C2)cc1 (stereo not given)" classification=N
molecule=ON=C1/C(=N\O)CC2(C/C1=N/O)OCCO2 classification=N
molecule=CN(c1ccccc1)S(=O)(=O)c1ccc(Cl)c(C(=O)OCC(=O)NCc2ccco2)c1 classification=N
molecule=CC[n+]1c(C)n(-c2ccccc2)c2ccc(NC(C)=O)cc21 classification=N
molecule=COc1ccc(Cl)cc1NC(=O)CCS(=O)(=O)c1ccc(Br)cc1 classification=N
molecule=Cc1ccc(SCC(=O)NC(=O)NCc2ccco2)c(C)c1 classification=N
molecule=Nn1cnnc1N/N=C/c1cc([N+](=O)[O-])c(Cl)cc1Cl classification=N
molecule=COc1cccc(NC(C)=[N+](C)CCNS(=O)(=O)c2ccc(Cl)cc2)c1 classification=N
molecule=Cc1nnc(SCC(=O)Nc2ccc(S(=O)(=O)Nc3ccc(Cl)nn3)cc2)s1 classification=N
